B1: LINE1-mini (parent)
chain: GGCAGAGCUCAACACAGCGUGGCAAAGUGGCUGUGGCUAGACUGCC

- Variants of: B1
- assay.summary: self-cleavage, relative activity (ratio to wild type); higher = more cleavage; in vitro, sequencing; the parent is a self-cleaving ribozyme
Assign Condition met whenever self-cleavage does not fall below 0.3; assign Condition not met whenever it does.

| mutant.designation | group.label |
| --- | --- |
| U9A G36A | Condition met |
| U9A C13U | Condition not met |
| G33C G44C | Condition not met |
| U20C A25U | Condition met |
| C15G G35C | Condition not met |
| A6U C18U | Condition met |
| A6G A16G | Condition not met |
| G30C C31U | Condition met |
| G27U G40U | Condition not met |
| A24U G27C | Condition met |
| G5C U9A | Condition not met |
